Cited source for all entries: patent US5496452A

assayed system: horseradish peroxidase (HRP) (Armoracia rusticana)
Construct: purchased Biozyme
Sequence (P00433 31-353): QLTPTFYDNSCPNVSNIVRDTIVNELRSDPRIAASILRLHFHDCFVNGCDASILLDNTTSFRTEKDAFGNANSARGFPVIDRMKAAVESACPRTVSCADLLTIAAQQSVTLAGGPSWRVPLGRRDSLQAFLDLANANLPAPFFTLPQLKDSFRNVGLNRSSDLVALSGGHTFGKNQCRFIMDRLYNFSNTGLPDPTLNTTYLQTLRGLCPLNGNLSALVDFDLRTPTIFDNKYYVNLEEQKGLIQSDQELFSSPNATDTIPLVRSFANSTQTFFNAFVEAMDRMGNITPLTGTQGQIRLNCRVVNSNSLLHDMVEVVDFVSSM
test name: Ferrocenes as mediators for HRP reduction: ring current at rotating ring disc electrode
Type: biochemical
measurement context: ferrocene derivative 0.5 mM, HRP 2.5 μM, disc potential -1.2V; relative to hydroxymethyl ferrocene = 100%
Entries annotated with measured Relative Current
property measured: Relative Current (%)

INSERT INTO measurements (molecule, assay_result) VALUES
  ('CN(C)Cc1ccc[cH-]1.[Fe+2].c1cc[cH-]c1 [Dimethylaminomethyl Ferrocene]', 6),
  ('O=C([O-])[c-]1cccc1.O=C([O-])[c-]1cccc1.[Fe+2] [1,1'' Dicarboxylate Ferrocene]', 3),
  ('OC[c-]1cccc1.[Fe+2].c1cc[cH-]c1 [Hydroxymethyl Ferrocene]', 100),
  ('O=C([O-])[c-]1cccc1.[Fe+2].c1cc[cH-]c1 [Monocarboxylate Ferrocene]', 17);

* * *

test name: Redox potential (Ep1/2) of ferrocene derivatives
Assay type: physicochemical
measurement context: ferrocene derivative 0.5 mM; potentials quoted vs SCE
Entries annotated with measured Ep1/2 (redox potential)
property measured: Ep1/2 (redox potential) (mv)

INSERT INTO results (compound, property_measured, display_unit, assay_result) VALUES
  ('OC[c-]1cccc1.[Fe+2].c1cc[cH-]c1 [Hydroxymethyl Ferrocene]', 'Ep1/2 (redox potential)', 'mv', 210),
  ('CN(C)Cc1ccc[cH-]1.[Fe+2].c1cc[cH-]c1 [Dimethylaminomethyl Ferrocene]', 'Ep1/2 (redox potential)', 'mv', 490),
  ('O=C([O-])[c-]1cccc1.[Fe+2].c1cc[cH-]c1 [Monocarboxylate Ferrocene]', 'Ep1/2 (redox potential)', 'mv', 295),
  ('O=C([O-])[c-]1cccc1.O=C([O-])[c-]1cccc1.[Fe+2] [1,1'' Dicarboxylate Ferrocene]', 'Ep1/2 (redox potential)', 'mv', 420);

* * *

assayed system: horseradish peroxidase (HRP) (Armoracia rusticana, UniProt P00433)
Construct: purchased Biozyme
Sequence (P00433 31-353): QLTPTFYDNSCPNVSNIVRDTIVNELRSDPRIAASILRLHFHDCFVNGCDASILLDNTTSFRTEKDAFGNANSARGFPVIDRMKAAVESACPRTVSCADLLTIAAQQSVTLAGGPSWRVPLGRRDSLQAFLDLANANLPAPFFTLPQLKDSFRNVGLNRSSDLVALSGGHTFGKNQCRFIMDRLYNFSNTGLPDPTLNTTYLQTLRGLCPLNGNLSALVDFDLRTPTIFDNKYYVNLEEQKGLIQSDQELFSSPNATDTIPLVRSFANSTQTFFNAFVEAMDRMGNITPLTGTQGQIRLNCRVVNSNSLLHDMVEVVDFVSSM
test name: Ferrocenes as mediators for HRP reduction: ring current at rotating ring disc electrode
Assay type: biochemical
measurement context: ferrocene derivative 0.5 mM, HRP 2.5 μM, disc potential -1.2V
Procedure: The electrocatalytic activity of HRP as shown in FIGS. 1 and 2 was typically assessed by immersing the rotating ring disc electrode in a buffered solution containing peroxidase and hydroxymethyl ferrocene mediator. […] A cathodic potential sweep was applied to the glassy carbon disc at 0.1V/S. The platinum ring was held at constant potential of 0V and the current at the ring as a function of the disc potential was measured. […]
Entries annotated with measured Current (ring current)
property measured: Current (ring current)

INSERT INTO measurements (compound, assay_result) VALUES
  ('CN(C)Cc1ccc[cH-]1.[Fe+2].c1cc[cH-]c1', '0.22 mA'),
  ('O=C([O-])[c-]1cccc1.O=C([O-])[c-]1cccc1.[Fe+2] [1,1'' Dicarboxylate Ferrocene]', '0.10 mA'),
  ('OC[c-]1cccc1.[Fe+2].c1cc[cH-]c1 [Hydroxymethyl Ferrocene]', '3.8 mA'),
  ('O=C([O-])[c-]1cccc1.[Fe+2].c1cc[cH-]c1 [Monocarboxylate Ferrocene]', '0.64 mA');
